Attribution: patent US7157078B2

# Test system: termites from the genus/specie Reticulitermes flavipes or Coptotermes formosanus
# Protocol description: Termiticide activity (Reference Example 3)
# Type: in vivo
# Stated conditions: 0.5% compound on Whatman #1 filter paper, 20 termites per well, triplicate
Collected DTD50 (number of days until 50% death) values appear next to each entry.
# number only, unit days dropped from output

CC(C)(c1ccc(O)cc1)c1ccc(O)cc1 [CAS No. 80-05-7] = 42
CC(=O)Oc1ccc(C(C)(C)c2ccc(OC(C)=O)cc2)cc1 [CAS No. 10192-62-8] = 70
Cc1nc2cc(C)c(C)cc2[nH]1 [CAS No. 3363-56-2] = 63

Reported DTD50 (number of days until 50% death) for O=[N+]([O-])c1ccc(OC2OC(CO)C(OC3OC(CO)C(O)C(O)C3O)C(O)C2F)c([N+](=O)[O-])c1 (centres unmarked) [CAS No. 154862-23-4] was 66

Reported DTD50 (number of days until 50% death) for OC[C@H]1O[C@@H](Oc2ccccc2)[C@H](O)[C@@H](O)[C@@H]1O [CAS No. 1464-44-4, Phenyl-beta-D-glycoside] was 15

Reported DTD50 (number of days until 50% death) for OCC1OC(O)(C(F)(F)F)C(O)C(O)C1O (centres unmarked) was 41

Reported DTD50 (number of days until 50% death) for O=C(Nc1ccccc1)c1cccnc1 [CAS No. 1752-96-1] was 80

Reported DTD50 (number of days until 50% death) for COc1ccc(NC(=O)CC(C)=O)cc1 [CAS No. 5437-98-9] was 31

---

Collected DTD50 (number of days until 50% death) values appear next to each entry.
# Test system: termites from the genus/specie Reticulitermes flavipes or Coptotermes formosanus
# Protocol description: Termiticide activity (Reference Example 3)
# Assay type: in vivo
# Stated conditions: 0.5% compound on Whatman #1 filter paper, 20 termites per well, triplicate
Hi, when you answer, please include the unit after the number. Thanks!

Past entries and their recorded results:
OCC1OC(F)C(F)C(O)C1O (stereo not drawn) = 33 days
O=c1c2ccccc2nnn1O = 80 days

Okay, now this compound:
Reported DTD50 (number of days until 50% death) for COC(=O)C[S+]([O-])c1ccccc1 (stereo not drawn) was 35 days
